Ref: the supplement of paper PMC5579334

Test system: HS-PSS
Assay: % inhibition of CellTiter-Glo viability at highest tested concentration (72 h), relative to DMSO and benzethonium chloride controls; higher = more inhibition
Lab note: anything with % inhibition at or over 50% counts as T; the rest go in F.

Study these solved cases before continuing.
| compound | classAssignment |
| --- | --- |
| Cc1sc2c(c1C)C(c1ccc(Cl)cc1)=N[C@@H](CC(=O)OC(C)(C)C)c1nnc(C)n1-2 [JQ1] (max concentration tested 10000 nM) | T |
| CC(C)C[C@@H](C(=O)N[C@H](C(=O)OC1CCCC1)c1ccccc1)[C@H](O)C(=O)NO [Tosedostat] (max concentration tested 10000 nM) | F |
| COc1cc2nccc(Oc3ccc(NC(=O)Nc4cc(C)on4)c(Cl)c3)c2cc1OC [Tivozanib] (max concentration tested 10000 nM) | F |

Exercise: Decide: % inhibition of COc1cccc2cc(-c3nc([C@H]4CC[C@H](C(=O)O)CC4)n4ncnc(N)c34)[nH]c12 [OSI-027] (max concentration tested 10000 nM) >= 50%?
Key: F

Exercise: # check: % inhibition of COc1ccc(-c2ccc3c(N4CCOC[C@@H]4C)nc(N4CCOC[C@@H]4C)nc3n2)cc1CO [AZD8055] (max concentration tested 10000 nM) is greater than or equal to 50%
Key: T

Exercise: Evaluate Cc1cc2c(C(=O)NC[C@H](C)c3ccccc3)c(O)c(O)cc2c(O)c1-c1c(C)cc2c(C(=O)NC[C@H](C)c3ccccc3)c(O)c(O)cc2c1O [Sabutoclax] (max concentration tested 25000 nM) : % inhibition at minimum 50%?
Key: T

Exercise: Reported % inhibition reaches at least 50% for CCc1c2c(nc3ccc(O)cc13)-c1cc3c(c(=O)n1C2)COC(=O)[C@]3(O)CC [SN-38] (max concentration tested 10000 nM) ?
Key: T

Exercise: Does Cn1cc(-c2ccc3nnc(C(F)(F)c4ccc5ncccc5c4)n3n2)cn1 (max concentration tested 10000 nM) have a reported % inhibition of at least 50%?
Key: F

Exercise: Quick check, % inhibition >= 50%? Cc1cc2c(F)c(Oc3ncnn4cc(OC[C@@H](C)O)c(C)c34)ccc2[nH]1 [Brivanib] (max concentration tested 1000 nM)
Key: F

Exercise: Item CCN1CCN(Cc2ccc(Nc3ncc(F)c(-c4cc(F)c5nc(C)n(C(C)C)c5c4)n3)nc2)CC1 [Abemaciclib] (max concentration tested 2500 nM) with % inhibition of 50% or above?
Key: F

Exercise: # check: % inhibition of Cc1cnc(Nc2ccc(F)cc2Cl)nc1-c1c[nH]c(C(=O)N[C@H](CO)c2cccc(Cl)c2)c1 [VX-11E] (max concentration tested 2500 nM) is greater than or equal to 50%
Key: F

Exercise: Given Cc1c(C(=O)Nc2ccc(N3C[C@@H](C)O[C@@H](C)C3)nc2)cccc1-c1ccc(OC(F)(F)F)cc1 [Sonidegib] (max concentration tested 10000 nM) , state whether its % inhibition is at least 50%.
Key: F

Exercise: Is % inhibition at least 50%? Consider Cc1cc(Nc2nc(N[C@@H](C)c3ncc(F)cn3)ncc2Cl)[nH]n1 [AZD1480] (max concentration tested 1000 nM)
Key: F

Exercise: Test whether the compound C[C@@H](Oc1ccc2[nH]nc(/C=C/c3cnn(CCO)c3)c2c1)c1c(Cl)cncc1Cl (max concentration tested 1000 nM) records % inhibition of 50% or higher.
Key: T

Exercise: Form field: % inhibition at least 50%? Entry: CNc1nc(Nc2cn(C(C)(C)C#N)nc2C)ncc1C(F)(F)F [GNE-0877] (max concentration tested 1000 nM)
Key: F

Exercise: Could you please find out whether CCNC(=O)c1noc(-c2cc(C(C)C)c(O)cc2O)c1-c1ccc(CN2CCOCC2)cc1 [Luminespib] (max concentration tested 1000 nM) has % inhibition that meets 50% or exceeds it?
Key: T

Exercise: Record FC(F)c1nc2ccccc2n1-c1nc(N2CCOCC2)nc(N2CCOCC2)n1 [ZSTK474] (max concentration tested 10000 nM) ; criterion: % inhibition no lower than 50%. Met?
Key: F
